tested on: K562; test: Cytotoxicity against human K562 cells assessed as cell viability after 72 hrs by tryphan blue assay; type: functional, cell-based; settings: k562
EXPERIMENTAL ENDPOINT: IC50 (µM)
Give the value, in units of µM, as a plain number.

[Q] Form field - read-out: IC50; system: K562; submitted item: DICHLOROTRIPHENYLBISMUTHANE
[A] 31.1
